Quick reference for pKi among some compounds
target_desc: Sodium-dependent serotonin transporter (Rattus norvegicus)
Sequence (P31652 whole entry): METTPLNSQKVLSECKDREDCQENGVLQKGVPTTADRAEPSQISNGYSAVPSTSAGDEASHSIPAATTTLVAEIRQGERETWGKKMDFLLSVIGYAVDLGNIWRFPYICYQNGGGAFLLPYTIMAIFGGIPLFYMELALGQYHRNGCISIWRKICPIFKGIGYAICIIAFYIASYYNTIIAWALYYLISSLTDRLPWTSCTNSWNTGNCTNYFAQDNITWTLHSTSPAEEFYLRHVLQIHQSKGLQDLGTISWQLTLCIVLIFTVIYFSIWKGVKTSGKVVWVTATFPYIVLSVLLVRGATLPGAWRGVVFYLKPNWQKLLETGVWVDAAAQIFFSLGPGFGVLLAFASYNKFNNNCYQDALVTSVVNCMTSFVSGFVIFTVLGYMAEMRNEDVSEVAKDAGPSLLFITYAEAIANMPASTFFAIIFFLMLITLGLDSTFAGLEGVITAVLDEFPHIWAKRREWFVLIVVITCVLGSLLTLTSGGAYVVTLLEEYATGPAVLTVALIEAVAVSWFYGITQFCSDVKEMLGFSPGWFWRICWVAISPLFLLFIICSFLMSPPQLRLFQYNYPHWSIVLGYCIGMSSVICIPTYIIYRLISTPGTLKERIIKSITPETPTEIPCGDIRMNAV
test_method_notes: Inhibition of [3H]5-HT uptake into rat synaptosomes by Serotonin transporter
Please treat pKi as minus the base-10 logarithm of the molar concentration.

Some solved cases for reference:
[[record]]
entry_smiles = "CN1CC[C@@H](c2ccc(Cl)cc2)[C@H](C(=O)NCc2ccc(CNC(=O)c3ccc(C(F)(F)F)cc3)cc2)C1"
target_desc = "Sodium-dependent serotonin transporter (Rattus norvegicus)"
recorded_number = 6.48

[[record]]
entry_smiles = "Cc1ccc(C(=O)NCc2ccc(CNC(=O)[C@@H]3CN(C)CC[C@H]3c3ccc(Cl)cc3)cc2)cc1"
target_desc = "Sodium-dependent serotonin transporter (Rattus norvegicus)"
recorded_number = 6.71

[[record]]
entry_smiles = "CN1CC[C@@H](c2ccc(Cl)cc2)[C@H](C(=O)NCc2ccc(CNC(=O)CCc3ccccc3)cc2)C1"
target_desc = "Sodium-dependent serotonin transporter (Rattus norvegicus)"
recorded_number = 7.17


Kindly consider the entry below.
## Task May I ask what pKi has been recorded for CN1CC[C@@H](c2ccc(Cl)cc2)[C@H](C(=O)NCc2ccc(CNC(=O)[C@@H]3CN(C)CC[C@H]3c3ccc(Cl)cc3)cc2)C1 ?
## Result 9.49
